tested on: OVCAR-8 ovarian; assay: NCI-60 one-dose screen, 48 h (100 = growth as untreated, 0 = no growth, -100 = all killed); conditions: 10 µM unless noted
Compounds without any hit were thinned out: in the full panel of roughly 83,000, 20% have a hit.
MEASUREMENT_NAME: growth (%)
Answers are plain numbers, in %.

These recorded examples may help you get a feel for the data.
{"SMILES_RECORD": "COc1ccc(Cn2cc3c(c2-c2cc(OC)c(OC)c(OC)c2)CCCc2cnoc2-3)cc1", "TARGET_OF_ASSAY": "OVCAR-8 ovarian", "OBSERVED_RESULT": 43}
{"SMILES_RECORD": "O=C(NNc1nc2cc(F)c(F)cc2n2cccc12)c1ncccn1", "TARGET_OF_ASSAY": "OVCAR-8 ovarian", "OBSERVED_RESULT": 21.9}
{"SMILES_RECORD": "COc1cc(/C=N/n2cnc3oc(-c4ccccc4)cc3c2=N)cc(CN2CCOCC2)c1O", "TARGET_OF_ASSAY": "OVCAR-8 ovarian", "OBSERVED_RESULT": 60.4}
{"SMILES_RECORD": "COc1cc2cc(Oc3ccc(NC(=O)c4cccc(C(F)(F)F)c4)cc3)c(C)nc2cc1OCCN(C)C", "TARGET_OF_ASSAY": "OVCAR-8 ovarian", "OBSERVED_RESULT": 89.8}

Next compound, please.
**Query** Lab request: please report growth under test system OVCAR-8 ovarian for "Clc1ccc(-c2csc(N/N=C/c3nc4ccccc4n3C3CC3)n2)cc1"
**Result** 99

###

So I've got a bunch of compounds here, and I need their growth values.
system: OVCAR-8 ovarian; assay: NCI-60 one-dose screen, 48 h (100 = growth as untreated, 0 = no growth, -100 = all killed); conditions: 10 µM unless noted
The panel holds about 83,000 compounds, 20% with a hit somewhere; the sample as a whole holds those more often.
Answers are plain numbers, in %.

{"COMPOUND": "COc1cc(/C=C/C(=O)c2ccc(N3CCN(C)CC3)cc2)ccc1F", "growth [%]": 88.9}
{"COMPOUND": "O=C1Nc2cc(OC(F)(F)F)ccc2Oc2ccc(-c3ccnc(N4CCNCC4)c3)cc21", "growth [%]": 20.9}
{"COMPOUND": "Cc1cn(-c2cc(NC(=O)c3cncc(C#Cc4cnc5ccc(O[C@H]6CCOC6)nn45)c3)cc(C(F)(F)F)c2)cn1", "growth [%]": 92.6}
{"COMPOUND": "Oc1ccc(CSc2nnc(-c3ccncc3)o2)c2cccnc12", "growth [%]": 15.8}

Need growth for each of these compounds.
1. CC1COc2c(N3CCN(C)CC3)c(F)cc3c(=O)c(C(=O)N/N=C/c4cc[nH]c4)cn1c23 (centres undefined)
2. CC(C)(C)CC(C)(C)n1nnnc1C(Nc1ccccc1)c1cc2cccc3ccc4cccc1c4c32 (centres undefined)
3. O=C1c2c(c3c4cc(Br)ccc4[nH]c3c3ccc4ccccc4c23)C(=O)N1CCN1CCNCC1
4. CC1CCc2c(sc3nc(SCC(=O)N/N=C/c4cccc(O)c4O)n(-c4ccccc4)c(=O)c23)C1 (centres undefined)

**Result**
19.4
86.4
57.3
90.6

**Query** What does the data say about its growth? Entry: "COc1ccc(/C=N/Nc2nc(Nc3ccccc3)nc(Nc3ccc(S(N)(=O)=O)cc3)n2)cc1"
**Result** 67.6
